procedure.text: Phase 1 FIH study Part 4: plasma pharmacokinetics in patients with stable schizophrenia
Type: in vivo, human
condition.parameters: human, plasma, po, stable schizophrenia, oral, 160/80 mg, Day 1, N 15; read-out: Cmax (mean)
property.measured: Cmax (ng/mL)

molecule	test.result
C[C@H](NC(=O)Cn1nnc2ccccc2c1=O)c1ccc(OC(F)(F)F)cc1 [Compound (I)]	1270

----------
procedure.text: Phase 1 FIH study Part 4: plasma pharmacokinetics in patients with stable schizophrenia
Type: in vivo, human
condition.parameters: human, plasma, po, stable schizophrenia, oral, 160/80 mg, Day 22, N 14; read-out: AUC96 (mean)

mol.smiles	AUC
C[C@H](NC(=O)Cn1nnc2ccccc2c1=O)c1ccc(OC(F)(F)F)cc1	140 µg·h/mL
